# System: apomorphine-induced stereotypy
# Procedure Summary: Antagonism of apomorphine-induced stereotypy in rats
# Assay type: in vivo
# Recorded Conditions: Rattus norvegicus, ip, 0.5 h, read-out: % ISS (inhibition (-) or potentiation (+) of the stereotypy score), rats, i.p. dose 10 mg.kg^-1; apomorphine 1.5 mg.kg^-1 i.p.; 30 minutes
Counter-ions that a name gives are not always drawn.
Property Label: change in vivo at 10 mg/kg (%)

| Molecule | Property Label | Measured Number |
| --- | --- | --- |
| CCCNC1CCc2cc3c(cc2C1)OCC3 (racemic) [Example 34, hydrochloride] | change in vivo at 10 mg/kg | -68 |
| CCCN(CCC)C1CCc2cc3c(cc2C1)OCC3 (racemic) | change in vivo at 10 mg/kg | 0 |
| CN(C)C1CCc2cc3c(cc2C1)OCC3 (racemic) [Example 6, hydrochloride] | change in vivo at 10 mg/kg | -48 |
| CNC1CCc2cc3c(cc2C1)OCC3 (centres unmarked) [Example 38, hydrochloride] | change in vivo at 10 mg/kg | -54 |
| NC1CCc2cc3c(cc2C1)OCC3 (racemic) [Example 2, hydrochloride] | change in vivo at 10 mg/kg | -62 |
